Data provenance is patent US20230241113A1.

Molecular target: T1, HLA-A*02:01 (human)
T1 construct: captured on streptavidin plates, detected with anti-β2m; also called peptide-receptive MHC molecules; MHC class I
Assay: UV-ligand exchange + anti-β2m ELISA; exchange yield grade: ≥10% +, ≥20% ++, ≥50 +++, ≥75% ++++
Protocol: The individual peptide-MHC complexes were produced by UV-ligand exchange, where a UV-sensitive peptide is cleaved upon UV-irradiation and exchanged with the peptide of interest as analyzed. […] 96 well MAXISorp plates (NUNC) were coated over night with 2 μg/ml streptavidin in PBS at room temperature, washed 4× and blocked for 1 h at 37° C. in 2% BSA containing blocking buffer. […] Absorption was measured at 450 nm. […]
property label: peptide exchange yield

Field request: peptide exchange yield | item: AIWSTILIA (also called AIWSTILIA) [altORF-041] 20 to 50%

Consider next the binder FQVTRTTGV (also called FQVTRTTGV) [altORF-034] in the same way. ≥ 75%

Consider next the binder LLLQIEPAA (also called LLLQIEPAA) [altORF-068] in the same way. ≥ 75%

Consider next the binder MLAEIHPKA (also called MLAEIHPKA) [altORF-046] in the same way. ≥ 75%

Consider next the binder ALYHQSPLL (also called ALYHQSPLL) [altORF-043] in the same way. ≥ 75%

Consider next the binder LSFKRSLSI (also called LSFKRSLSI) [altORF-061] in the same way. 20 to 50%

Consider next the binder VLPWQPLLL (also called VLPWQPLLL) [altORF-059] in the same way. 20 to 50%

Consider next the binder NLVMPLLHI (also called NLVMPLLHI) [altORF-013] in the same way. 20 to 50%

Consider next the binder SLLDKLSGI (also called SLLDKLSGI) [altORF-008] in the same way. ≥ 75%

Consider next the binder IAISQLTFV (also called IAISQLTFV) [altORF-063] in the same way. ≥ 75%

Consider next the binder LLWEFPSMA (also called LLWEFPSMA) [altORF-027] in the same way. ≥ 75%

Consider next the binder FLDEGSLLRL (also called FLDEGSLLRL) [altORF-011] in the same way. ≥ 75%

Consider next the binder VLWDLRPSSLI (also called VLWDLRPSSLI) [altORF-015] in the same way. ≥ 75%

Consider next the binder IITNLIVNI (also called IITNLIVNI) [altORF-054] in the same way. 50 to 75%

Consider next the binder WLMPVMPAL (also called WLMPVMPAL) [altORF-069] in the same way. ≥ 75%

Consider next the binder TLLSYSIPL (From a human endogenous retrovirus; also called TLLSYSIPL) [HERVK-003] in the same way. ≥ 75%
